Below, each entry is listed alongside its reported Ki.
# assay.system: Phosphodiesterase (Trypanosoma brucei, UniProt Q8WQX9)
# Sequence (Q8WQX9 whole entry): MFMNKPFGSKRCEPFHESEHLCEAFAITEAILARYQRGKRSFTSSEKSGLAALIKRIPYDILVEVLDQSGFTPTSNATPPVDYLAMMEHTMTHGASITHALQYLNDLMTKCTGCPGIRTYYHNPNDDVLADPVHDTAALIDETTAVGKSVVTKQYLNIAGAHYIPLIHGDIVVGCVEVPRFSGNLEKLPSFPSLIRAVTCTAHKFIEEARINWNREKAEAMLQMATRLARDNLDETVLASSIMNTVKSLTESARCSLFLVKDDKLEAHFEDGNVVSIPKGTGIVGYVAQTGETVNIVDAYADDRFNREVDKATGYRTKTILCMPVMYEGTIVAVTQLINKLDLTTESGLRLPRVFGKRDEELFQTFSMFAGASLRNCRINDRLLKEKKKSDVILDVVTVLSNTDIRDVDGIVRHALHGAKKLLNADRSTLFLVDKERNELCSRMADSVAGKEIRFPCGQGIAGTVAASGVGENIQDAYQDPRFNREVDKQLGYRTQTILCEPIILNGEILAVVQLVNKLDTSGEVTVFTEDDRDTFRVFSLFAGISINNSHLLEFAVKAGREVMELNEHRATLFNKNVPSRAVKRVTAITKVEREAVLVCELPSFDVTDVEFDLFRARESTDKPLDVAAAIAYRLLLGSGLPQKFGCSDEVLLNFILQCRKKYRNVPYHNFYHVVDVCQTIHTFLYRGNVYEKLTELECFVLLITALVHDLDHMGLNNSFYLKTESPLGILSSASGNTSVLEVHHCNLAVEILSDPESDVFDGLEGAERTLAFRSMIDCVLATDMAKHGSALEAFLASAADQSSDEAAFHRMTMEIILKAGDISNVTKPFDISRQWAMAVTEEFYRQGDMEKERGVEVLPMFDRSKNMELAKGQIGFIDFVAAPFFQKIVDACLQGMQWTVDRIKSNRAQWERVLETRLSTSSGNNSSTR
experimental.endpoint: Ki (nM)

1) COc1ccc(C2=NN(C3CCCCCC3)C(=O)[C@@H]3CC=CC[C@H]23)cc1-c1ccc(C(=O)NCC(N)=O)cc1: 40
2) COc1ccc(C2=NN(C3CCCCCC3)C(=O)[C@@H]3CC=CC[C@H]23)cc1-c1ccc(C(=O)N2CC(=O)N(C)C2)cc1: 1580
3) COc1ccc(C2=NN(C3CCCCCC3)C(=O)[C@@H]3CC=CC[C@H]23)cc1-c1ccc(C(=O)N2CNC(=O)C2)cc1: 631
